The following compounds are shown together with reported Reduction of live worms values.
Test system: Litomosoides carinii
Test: Antifilarial activity against Litomosoides carinii infections in the Jird at dose 25 mg/kg administered orally
Type: functional
Conditions: route oral
Write it as a number; the unit % goes unstated.

The following compounds have reported results that may help.
1. CCNCc1cc(Nc2cc(C(F)(F)F)nc(/N=C(\N)Nc3ccccc3)n2)ccc1OC :: 33
2. CCNCc1cc(Nc2cc(C(F)(F)F)nc(/N=C(\N)Nc3ccc(Cl)cc3)n2)ccc1OC :: 94
3. CCOc1ccc(Nc2cc(C(F)(F)F)nc(/N=C(\N)Nc3ccc(Cl)c(Cl)c3)n2)cc1CN(CC)CC :: 100
4. CCN(CC)Cc1cc(Nc2cc(C(F)(F)F)nc(/N=C(\N)Nc3ccc(Oc4ccccc4)cc3)n2)ccc1OC :: 27
5. CCN(CC)Cc1cccc(Nc2cc(C(F)(F)F)nc(/N=C(\N)Nc3ccc(Cl)c(Cl)c3)n2)c1 :: 100

Query string: Report value: Reduction of live worms, system: Litomosoides carinii, compound: CCN(CC)Cc1cc(Nc2cc(C(F)(F)F)nc(/N=C(\N)Nc3ccc(C(F)(F)F)cc3)n2)ccc1O
Result string: 100

Query string: Report value: Reduction of live worms, system: Litomosoides carinii, compound: CCN(CC)Cc1cc(Nc2cc(C(F)(F)F)nc(/N=C(\N)Nc3ccc(C(F)(F)F)cc3)n2)ccc1OC
Result string: 100

Query string: Report value: Reduction of live worms, system: Litomosoides carinii, compound: CC(C)CNCc1cc(Nc2cc(C(F)(F)F)nc(/N=C(\N)Nc3ccc(Cl)c(Cl)c3)n2)ccc1O
Result string: 100
